test: protein stability index of a GFP-peptide fusion (yeast GPS) (PSI 1-4); higher = more stable; sorted into four equal gates, so the index is relative within each strain; conditions: san1∆
protein stability index values, listed per item
measured.parameter: protein stability index

INSERT INTO measurements (macromolecule_sequence, endpoint_value) VALUES
  ('LLHETNDSFKGLITNKM [PRP8]', 3.06),
  ('AIPNPEDVVAISSRTFG [RPS0A]', 2.91),
  ('WKQDLTKEEAIKLASDA [PUP1]', 2.2),
  ('NILIASLMDTLITPAVR [YCG1]', 1.58),
  ('IADLDTEAEETSIHSTI [RRP43]', 3.54),
  ('SANVELFKRDCNQMENL [YCS4]', 3.4),
  ('HGSISPQEESVSPNISS [SIR3]', 2.98),
  ('NNTTPSSTGNANTSNNL [YJL041W/NSP1]', 3.46),
  ('NDIFERIATEASKLAAY [HTB1]', 1.19),
  ('LRNKIAGYTTHLMKRIQ [RPS17A]', 2.31),
  ('PEETPLEELAETFQDTF [FAS2]', 3.12),
  ('LVAKLKKVKSASKKSGG [SMC4]', 2.13),
  ('ILSLATEGCIGLSQTEA [MCD1]', 2.81),
  ('LRDHALSLTAFTKNEEK [ITC1]', 1.38),
  ('AQSSHIRAIRKVISEIL [RPS1A]', 1.62);

###

test: protein stability index of a GFP-peptide fusion (yeast GPS) (PSI 1-4); higher = more stable; sorted into four equal gates, so the index is relative within each strain; details: san1∆
# protein stability index per entry
measured.parameter: protein stability index

INSERT INTO results (macromolecule_sequence, endpoint_value) VALUES
  ('NKPAIKEDSTIQDSNGD [SWI3]', 3.14),
  ('SHILNSHSLALNEITNS [DSN1]', 2.28),
  ('VLGTPDQKIWPYLEKYP [SSN3]', 2.3),
  ('SKVVIDSIIDNIVKLCF [IRR1]', 2.2),
  ('LESSITDAGVLALKLEL [YJL039C/NUP192]', 1.3),
  ('VYTQSNGKTRTLENTLK [RPS2]', 3.24),
  ('RSRMLPTITLDDVYRPA [SNF5]', 3.04),
  ('AISTGNWSLKRFKMERA [RET1]', 2.44),
  ('LNQLDGFETSKNIKIIM [RPT6]', 2.74),
  ('RIKITANNNMNDELVEL [GRR1]', 2.33),
  ('SLPRFSKPVLIVGQKNL [DIS3]', 1.77),
  ('EKKAEYFAKLREYLEEY [RPP0]', 3.05),
  ('QFEIPISDDDDSALRYS [POP4]', 2.54),
  ('LCKTKMVCETDVPSEDD [RPO21]', 3.25),
  ('PVIGVFQKFLTGHPKGA [FAS2]', 2.57),
  ('WDDHTKKPLSMALNKVL [CDC53]', 2.36),
  ('FAGEAGDTVQFAEYIQA [PRE1]', 1.75),
  ('VLVLHGDKDTRADIVRN [ISW2]', 2.9),
  ('PISKHSKQAIYTRAAAS [RPS25B]', 2.43),
  ('ENPTPEKGNAKMIDFAT [SIR3]', 3.32),
  ('SVRSLQKRIENGGNSVI [SRP68]', 2.29),
  ('LRLPFSAAMSIDKLSDV [PRP8]', 2.24),
  ('YEYAEHDLLQIIHFHSH [SSN3]', 2.5),
  ('KNEKLKFQETLLRQKIE [ISW2]', 1.16),
  ('ATSVESVDIGVETILSG [FAS2]', 2.13),
  ('DRRKARKAYFTAPSSQR [RPL26A]', 2.76),
  ('TELKKKLDDLENTKDNL [SMC1]', 3.09),
  ('PGRLDRKIEFPSLRDRR [RPT3]', 3.23),
  ('TGWNAKTYGISDDIISQ [FAS2]', 1.72),
  ('GDFGGWFCPCHGSHYDI [RIP1]', 3),
  ('VSKEQFLKDADVECIKA [YJL039C/NUP192]', 2.17),
  ('EEKVLSTRLKKACKTAD [SRP68]', 3.56),
  ('TPSTSSNGEFIPHIFYS [CSE2]', 2.62),
  ('SPSERIEPLEINIQSFK [BRR2]', 2.55),
  ('TRVEGSGGGDSEVQRTM [RPT6]', 2.98),
  ('GDYGSAKCNSLLQLKYF [POP5]', 2.23),
  ('VSTETFEQPSQREEAKK [RPL27A]', 2.73),
  ('ILRKELSEEKEVIFTDV [MCD1]', 2.32),
  ('FKQSNSETFLQFYVKRW [CDC53]', 2.96),
  ('VPTKIARGTIEIVSDVK [RPP0]', 2),
  ('KHKKKHLKHENANDETT [RPB4]', 2.84),
  ('LTVIEKLDSKKILPTDI [SRP68]', 2.95),
  ('IAKSRYWYFLQKLHKVK [RPL20A]', 2.79),
  ('DENGTNSAIANEQEEKS [RPC37]', 2.74),
  ('DSEDEDSMKDTTDMISV [YML031W/NDC1]', 3.2),
  ('SVRLQRFYQLGVDLKLK [CSN12]', 3.01),
  ('HRKHIAVLKKIQSKAVE [YCG1]', 2.69),
  ('LEKIHSIEVQSLPEFFT [SWI3]', 2.43),
  ('MVAYSPIIATYGNRAEQ [SRP68]', 2.7),
  ('EVALFSQKAKLMTFNAE [YLR335W/NUP2]', 1.5),
  ('NDDELNKLLGNVTIAQG [HTA1]', 3.48),
  ('YKFLDQNSDASTLEPTL [YIL149C/MLP2]', 2.27),
  ('RSTDVWYEASTWIQQFK [ARP7]', 2.45),
  ('YSSYIYKVLKQTHPDTG [HTB1]', 1.7),
  ('VDRLKIGGSLARIALRH [RPS25A]', 2.01),
  ('NEQLTLLSKKHGQLKLS [RPN5]', 1.83),
  ('ATASAIAATAVASLVLA [RPL4A]', 1.91),
  ('NKNQLLKRNRIRNARSI [POP1]', 2.84),
  ('NPYSSYVSQIRKHKRVS [YAR002W/NUP60]', 2.85),
  ('STLSNWSSEFAKWAPTL [SNF2]', 2.85);
